test system: T1, human IL-18 binding protein (IL-18BP) (human, UniProt O95998 31-194)
T1 sequence (looked up): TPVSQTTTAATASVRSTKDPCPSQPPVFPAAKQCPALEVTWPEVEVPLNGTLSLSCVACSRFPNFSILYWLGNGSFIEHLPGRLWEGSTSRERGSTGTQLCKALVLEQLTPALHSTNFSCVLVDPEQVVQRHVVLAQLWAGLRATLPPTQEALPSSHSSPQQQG
assay details: cell-based or functional assay
Mark t only when HEK-Blue Ec50 (pM), +IL-18BP (50 nM) stays strictly below 4 pM. Values equal to the cut-off are f.

Below, 3 binders whose answers are already recorded.
{"binder": "IL-18 variant G3R, N91M, K53S (ligand, also called G3R/K53S/N91M) YFRKLESKLSVIRNLNDQVLFIDQGNRPLFEDMTDSDMRDNAPRTIFIISMYSDSQPRGMAVTISVKSEKISTLSSENKIISFKEMNPPDMIKDTKSDIIFFQRSVPGHDNKMQFESSSYEGYFLASEKERDLFKLILKKEDELGDRSIMFTVQNED", "category": "t"}
{"binder": "IL-18 variant G3R, N91A, K53S (ligand, also called G3R/K53S/N91A) YFRKLESKLSVIRNLNDQVLFIDQGNRPLFEDMTDSDMRDNAPRTIFIISMYSDSQPRGMAVTISVKSEKISTLSSENKIISFKEMNPPDAIKDTKSDIIFFQRSVPGHDNKMQFESSSYEGYFLASEKERDLFKLILKKEDELGDRSIMFTVQNED", "category": "t"}
{"binder": "IL-18 variant G3R, N91S, K53A (ligand) YFRKLESKLSVIRNLNDQVLFIDQGNRPLFEDMTDSDMRDNAPRTIFIISMYADSQPRGMAVTISVKSEKISTLSSENKIISFKEMNPPDSIKDTKSDIIFFQRSVPGHDNKMQFESSSYEGYFLASEKERDLFKLILKKEDELGDRSIMFTVQNED", "category": "t"}

Confirm or reject: HEK-Blue Ec50 (pM), +IL-18BP (50 nM) of IL-18 variant G3R, N91M, K53A (ligand, also called G3R/K53A/N91M) YFRKLESKLSVIRNLNDQVLFIDQGNRPLFEDMTDSDMRDNAPRTIFIISMYADSQPRGMAVTISVKSEKISTLSSENKIISFKEMNPPDMIKDTKSDIIFFQRSVPGHDNKMQFESSSYEGYFLASEKERDLFKLILKKEDELGDRSIMFTVQNED lies strictly below 4 pM t

Confirm or reject: HEK-Blue Ec50 (pM), +IL-18BP (50 nM) of IL-18 variant G3H, N91V, K53S (ligand, also called G3H/K53S/N91V) YFHKLESKLSVIRNLNDQVLFIDQGNRPLFEDMTDSDMRDNAPRTIFIISMYSDSQPRGMAVTISVKSEKISTLSSENKIISFKEMNPPDVIKDTKSDIIFFQRSVPGHDNKMQFESSSYEGYFLASEKERDLFKLILKKEDELGDRSIMFTVQNED lies strictly below 4 pM t

Confirm or reject: HEK-Blue Ec50 (pM), +IL-18BP (50 nM) of IL-18 variant G3R, N91W, K53A (ligand, also called G3R/K53A/N91W) YFRKLESKLSVIRNLNDQVLFIDQGNRPLFEDMTDSDMRDNAPRTIFIISMYADSQPRGMAVTISVKSEKISTLSSENKIISFKEMNPPDWIKDTKSDIIFFQRSVPGHDNKMQFESSSYEGYFLASEKERDLFKLILKKEDELGDRSIMFTVQNED lies strictly below 4 pM f

Confirm or reject: HEK-Blue Ec50 (pM), +IL-18BP (50 nM) of IL-18 variant G3A, N91L, K53S (ligand) YFAKLESKLSVIRNLNDQVLFIDQGNRPLFEDMTDSDMRDNAPRTIFIISMYSDSQPRGMAVTISVKSEKISTLSSENKIISFKEMNPPDLIKDTKSDIIFFQRSVPGHDNKMQFESSSYEGYFLASEKERDLFKLILKKEDELGDRSIMFTVQNED lies strictly below 4 pM f

Confirm or reject: HEK-Blue Ec50 (pM), +IL-18BP (50 nM) of IL-18 variant G3F, N91E, K53S (ligand, also called G3F/K53S/N91E) YFFKLESKLSVIRNLNDQVLFIDQGNRPLFEDMTDSDMRDNAPRTIFIISMYSDSQPRGMAVTISVKSEKISTLSSENKIISFKEMNPPDEIKDTKSDIIFFQRSVPGHDNKMQFESSSYEGYFLASEKERDLFKLILKKEDELGDRSIMFTVQNED lies strictly below 4 pM f

Confirm or reject: HEK-Blue Ec50 (pM), +IL-18BP (50 nM) of IL-18 variant G3K, N91I, K53S (ligand) YFKKLESKLSVIRNLNDQVLFIDQGNRPLFEDMTDSDMRDNAPRTIFIISMYSDSQPRGMAVTISVKSEKISTLSSENKIISFKEMNPPDIIKDTKSDIIFFQRSVPGHDNKMQFESSSYEGYFLASEKERDLFKLILKKEDELGDRSIMFTVQNED lies strictly below 4 pM f
